measurement notes: qHTS profiling of the MIPE4 collection as inhibitors of Plasmodium falciparum (HB3) proliferation (AID 743347);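 note: plate controls were DMSO vehicle wells for no effect and artemisinin wells for full effect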
measurement conditions: P. falciparum HB3 in erythrocytes, SYBR Green DNA, 72 h; at 28.5 µM (top of the series) unless noted
So basically: is growth, % of control under 40%? Then true (1). Not under? Then false (0).

As a guide, the following entries are already answered.
compound | class
CCOC(=O)C(C)Oc1cccc2c(=O)n(CC(=O)Nc3ccc4c(c3)OCCO4)ccc12 (stereo unspecified) | false (0)
CN(C)CCc1c[nH]c2ccc(Cn3cncn3)cc12 | false (0)
CN(C)C(=O)COC(=O)Cc1ccc(OC(=O)c2ccc(N=C(N)N)cc2)cc1 | false (0)
CC(C)c1nc(CN(C)C(=O)N[C@H](C(=O)N[C@@H](Cc2ccccc2)C[C@H](O)[C@H](Cc2ccccc2)NC(=O)OCc2cncs2)C(C)C)cs1 | true (1)
COc1ccc2cc([C@H](C)C(=O)O)ccc2c1 | false (0)
CN(C)c1ccc(O)c2c1C[C@H]1C[C@H]3[C@H](N(C)C)C(=O)C(C(N)=O)=C(O)[C@@]3(O)C(=O)C1=C2O | true (1)
Cc1nc(-c2ccc(OCC(C)C)c(C#N)c2)sc1C(=O)O | false (0)
N=C(N)c1ccc2cc(OC(=O)c3ccc(N=C(N)N)cc3)ccc2c1 | true (1)

Bench note: check whether `C=C(c1ccc(C(=O)O)cc1)c1cc2c(cc1C)C(C)(C)CCC2(C)C` shows growth, % of control below 40% false (0)

Bench note: check whether `O=C(O)c1cccc(-c2noc(-c3ccccc3F)n2)c1` shows growth, % of control below 40% false (0)

Bench note: check whether CC1Cc2ccccc2N1NC(=O)c1ccc(Cl)c(S(N)(=O)=O)c1 (stereo unspecified) shows growth, % of control below 40% false (0)

Bench note: check whether `O=Nc1c(-c2c(O)[nH]c3cc(Br)ccc23)[nH]c2ccccc12` shows growth, % of control below 40% true (1)

Bench note: check whether `CCN(CC)C(=S)SSC(=S)N(CC)CC` shows growth, % of control below 40% false (0)

Bench note: check whether CCN(CCO)CCCC(C)Nc1ccnc2cc(Cl)ccc12 (stereo unspecified) shows growth, % of control below 40% false (0)

Bench note: check whether C[C@@H](N)C1CCC(C(=O)Nc2ccncc2)CC1 (stereo partly specified) shows growth, % of control below 40% false (0)

Bench note: check whether `O=C(CCc1ccc(O)cc1)c1c(O)cc(O)cc1O` shows growth, % of control below 40% true (1)

Bench note: check whether `Oc1ccc2ccccc2c1SSc1c(O)ccc2ccccc12` shows growth, % of control below 40% true (1)

Bench note: check whether `O=c1cc(N2CCOCC2)oc2c(-c3ccccc3)cccc12` shows growth, % of control below 40% true (1)
